System: Enterococcus faecium
Experiment: Antibacterial activity against Enterococcus faecium CIP 107387 after 18 hrs by agar dilution method
Format: functional
Details: CIP 107387, 18 h
Property name: MIC (µM)
One number for each entry, in µM.

CC1(C)S[C@@H]2[C@H](NC(=O)[C@H](N)c3ccc(O)cc3)C(=O)N2[C@H]1C(=O)O
175
O=C(N[C@H](CO)[C@H](O)c1ccc([N+](=O)[O-])cc1)C(Cl)Cl
12

Kindly review the next compound as well.
Q: Item C=C1CC[C@H]2C(C)(C)CCC[C@]2(C)[C@H]1C[C@@H](O)C1=CC(=O)OC1O (some centres undefined) has what recorded MIC?
A: 96

* * *

Tested on: Bacillus cereus
Assay: Antibacterial activity against Bacillus cereus N349 after 18 hrs by agar dilution method
Type: functional
Settings: N349, 18 h
Assignment: determine reported MIC for the given molecules.
Numbers only, in µM.

Worked cases, answers included:
O=C(N[C@H](CO)[C@H](O)c1ccc([N+](=O)[O-])cc1)C(Cl)Cl [CHLORAMPHENICOL]
6
CN[C@H](CC(C)C)C(=O)N[C@H]1C(=O)N[C@@H](CC(N)=O)C(=O)N[C@H]2C(=O)N[C@H]3C(=O)N[C@H](C(=O)N[C@H](C(=O)O)c4cc(O)cc(O)c4-c4cc3ccc4O)[C@H](O)c3ccc(c(Cl)c3)Oc3cc2cc(c3O[C@@H]2O[C@H](CO)[C@@H](O)[C@H](O)[C@H]2O[C@H]2C[C@](C)(N)[C@H](O)[C@H](C)O2)Oc2ccc(cc2Cl)[C@H]1O [VANCOMYCIN]
0.6
C=C1CC[C@H]2C(C)(C)CCC[C@]2(C)[C@H]1C[C@H](O)C1=CCOC1=O
25
CC1COc2c(N3CCN(C)CC3)c(F)cc3c(=O)c(C(=O)O)cn1c23 (stereo unspecified) [OFLOXACIN]
1.4
CC1(C)S[C@@H]2[C@H](NC(=O)[C@H](N)c3ccc(O)cc3)C(=O)N2[C@H]1C(=O)O [AMOXICILLIN]
11

Now for another entry.
Q: For C=C1CC[C@H]2C(C)(C)CCC[C@]2(C)[C@H]1C[C@H](O)C1=CC(=O)OC1O (stereo partly specified) , what is its reported MIC?
A: 24

* * *

Kindly supply the reported MIC values for the records listed here.
System: Staphylococcus aureus
Test: Antibacterial activity against Staphylococcus aureus CIP 5710 after 18 hrs by agar dilution method
Type: functional
Details: CIP 5710, 18 h
Give bare numbers, in µM.

C=C(CC(=O)O)C(=O)C[C@H]1C(=C)CC[C@H]2C(C)(C)CCC[C@]12C
100

Moving on to the next compound.
Q: Requested field: MIC. Item: "CC1(C)S[C@@H]2[C@H](NC(=O)[C@H](N)c3ccc(O)cc3)C(=O)N2[C@H]1C(=O)O"
A: 0.7

* * *

System: MRC5
Assay: Cytotoxicity against human MRC5 cells assessed as growth inhibition at 10^-5 M after 72 hrs by MTS assay relative to control
Assay type: functional
Settings: MRC5, 72 h, read-out: GI
Property name: inhibition of growth at 10 µM (%)
Answers are plain numbers, in %.

Consider the following illustrative entries.
C=C1CC[C@H]2C(C)(C)CCC[C@]2(C)[C@H]1C[C@@H](O)C1=CC(=O)OC1
86
C=C(CC(=O)O)C(=O)C[C@H]1C(=C)CC[C@H]2C(C)(C)CCC[C@]12C
25
CC1(C)CCC[C@]2(C)[C@@H]1CC[C@]1(CO)O[C@@H](C3=CC(=O)OC3O)C[C@H]12 (stereo partly drawn)
92
C=C1C[C@@H](O)[C@H]2C(C)(C)CCC[C@]2(C)[C@H]1C[C@H](O)C1=CC(=O)OC1O (stereo partly drawn)
0
C=C1CC[C@H]2C(C)(C)CCC[C@]2(C)[C@H]1C[C@H](O)C1=CCOC1=O
71
C=C1C[C@@H](O)[C@H]2C(C)(C)CCC[C@]2(C)[C@H]1CCC1=CC(=O)OC1O (stereo partly drawn)
28
C=C1CC[C@H]2C(C)(C)CCC[C@]2(C)[C@H]1C[C@H](O)C1=CC(=O)OC1O (stereo partly drawn)
67

Moving on to the next compound.
Q: Can you look up the measured inhibition of growth at 10 µM of C=C1CC[C@H]2C(C)(C)CCC[C@]2(C)[C@H]1C[C@@H](O)C1=CC(=O)OC1O (stereo partly drawn) for me?
A: 95
